target: HLA-A*1101 (human); assay: iTopia off-rate
Tag: 1.0 if measured t1/2 is not below 0.8, 0.0 if it is.

Worked examples follow.
| binder | discrete.label |
| --- | --- |
| LQEIEYLTK [cdr2 60-68 LQEIEYLTK] | 0.0 |
| LTVPESHRK [cdr2 296-304 LTVPESHRK] | 1.0 |
| SLAGSDIVK [cdr2 317-325 SLAGSDIVK] | 0.0 |
| LTKQVELLR [cdr2 66-74 LTKQVELLR] | 1.0 |
| KVKYEELLK [cdr2 357-365 KVKYEELLK] | 1.0 |

Query: Exam item: decide whether the reported t1/2 for ASQQKILSL [cdr2 107-113 ASQQKILSL] is at least 0.8.
Result: 1.0

Query: Dear colleague, could you confirm whether KEIFSCIKK [cdr2 427-435 KEIFSCIKK] has t1/2 at or above 0.8?
Result: 1.0

Query: Does ADSKASQQK [cdr2 103-111 ADSKASQQK] have a reported t1/2 of at least 0.8?
Result: 0.0

Query: Confirm if t1/2 reported for the binder LQAQLSLER [cdr2 205-213 LQAQLSLER] is 0.8 or above.
Result: 0.0
